assay-name: inhibitors of intracellular T. cruzi replication, confirmation, NIH3T3 host cells, beta-gal parasites, cherry-pick, set 2 (AID 651740);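 also: plate controls were neutral control median for no effect and positive control median for full effect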
conditions-used: T. cruzi beta-gal in NIH3T3, GalScreen luminescence, 90 h; at 2.09 µM; active compounds read high
In all, about 5,600 compounds went through this assay and about 1,200 (21%) were called active. Roughly 3% stayed inconclusive and do not appear here. These entries were drawn from the full list.
inhibition for assorted molecules
Report as a plain number; the unit % is understood.

Consider the worked cases shown below.
C[C@H]1CN([C@@H](C)CO)C(=O)c2cc(C#CC3CCCCC3)cnc2O[C@H]1CN(C)S(=O)(=O)c1ccccc1    77
C[C@H](CO)N1C[C@H](C)[C@@H](CN(C)C(=O)Nc2cc(F)ccc2F)Oc2cc(C#CC3CC3)ccc2S1(=O)=O    51.9
CN1c2ccc(-c3ccccc3)cc2[C@@H]2[C@@H](CCN2C(=O)c2ccncc2)[C@@H]1CO    64.5

query: For C[C@@H]1CN([C@H](C)CO)S(=O)(=O)c2ccc(C#CCC3CCCC3)cc2O[C@H]1CN(C)C(=O)CC1CC1 , what is its reported inhibition?
result: 106

query: For C[C@@H]1CN([C@@H](C)CO)C(=O)c2cc(C#CC3CCCCC3)cnc2O[C@H]1CN(C)S(=O)(=O)c1ccccc1 , what is its reported inhibition?
result: 85.8

query: For C[C@@H]1CN([C@H](C)CO)C(=O)c2cc(C#Cc3ccccn3)cnc2O[C@H]1CN(C)Cc1ccccc1 , what is its reported inhibition?
result: 76.7

query: For Cc1ccc(-c2ccc3c(c2)O[C@H](CN(C)C)[C@@H](C)CN([C@H](C)CO)S3(=O)=O)cc1 , what is its reported inhibition?
result: 41.9

query: For CCCC#Cc1ccc([C@H]2[C@H](CO)N3CCCCN(C(=O)c4ccc5c(c4)OCO5)C[C@@H]23)cc1 , what is its reported inhibition?
result: 42.1

query: For N#C[C@H]1[C@@H](c2ccc(C3=CCCCC3)cc2)[C@@H](CO)N1C(=O)NC1CCCCC1 , what is its reported inhibition?
result: 59.4

###

inhibition for assorted compounds
assay-name: inhibitors of intracellular T. cruzi replication, confirmation, NIH3T3 host cells, beta-gal parasites, cherry-pick, set 2 (AID 651740);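 also: plate controls were neutral control median for no effect and positive control median for full effect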
conditions-used: T. cruzi beta-gal in NIH3T3, GalScreen luminescence, 90 h; at 2.09 µM; active compounds read high
Among all 5,600 compounds or so, about 1,200 (21%) were called active. Roughly 3% stayed inconclusive and do not appear here. Not all results are given here.
Report as a plain number; the unit % is understood.

Consider the worked cases shown below.
C[C@H](CO)N1C[C@H](C)[C@H](CN(C)S(=O)(=O)c2ccccc2)Oc2ncc(-c3cccc(C(F)(F)F)c3)cc2C1=O    47.5
C[C@@H]1CN([C@@H](C)CO)C(=O)c2cc(NC(=O)Cc3ccccc3)ccc2O[C@@H]1CN(C)Cc1ccc(Oc2ccccc2)cc1    94.9
C[C@@H]1CN([C@@H](C)CO)C(=O)c2cc(NC(=O)Nc3cccc4ccccc34)ccc2O[C@H]1CN(C)Cc1ccc(Oc2ccccc2)cc1    106

query: For C[C@@H]1CN([C@@H](C)CO)C(=O)c2cc(NC(=O)Nc3ccc4c(c3)OCO4)ccc2O[C@@H]1CN(C)Cc1ccc(Oc2ccccc2)cc1 , what is its reported inhibition?
result: -1.56
